# System: RIOK1
# conditionNotes: concentration: 1 μM, replicates: in singlicate; n = 1;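 also: KINOMEscan kinase panel screen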
# %Inh per record follows
Quick reminder: number only, in %, skip the unit.

Task: // Input: CNc1cc(-c2ccc3c(N)n[nH]c3c2)nc(N)n1 . Output its %Inh only.
Output: 84

###

# %Inh per record follows
# Tested on: MEK2
# Construct: gene MAP2K2
# conditionNotes: concentration: 1 μM, replicates: in singlicate; n = 1
Quick reminder: number only, in %, skip the unit.

Study these solved cases before continuing.
O=C1NC(=O)C(c2ccc(Cl)cc2)=C1Nc1ccc(O)cc1 [SB-340867] ... 0
CS(=O)(=O)CCNCc1nc(-c2ccc3ncnc(Nc4ccc5c(cnn5Cc5ccccc5)c4)c3c2)cs1.Cl.Cl [GW569716] ... 0
Fc1ccc(-c2nc3n(c2-c2ccncc2)CCS3)cc1 [GI98581] ... 0
Cc1ccc(NC(=O)Nc2ccccc2)cc1-c1ccc(C(=O)Nc2ccncc2)cc1 [GSK1398471] ... 0

Task: // Input: Cc1ccc(NC(=O)Nc2ccc(Cl)cc2)cc1-c1ccc(C(=O)Nc2ccncc2)cc1 [GSK1398472] . Output its %Inh only.
Output: 0

Task: // Input: O=C(Nc1n[nH]c2cc(-c3ccsc3)ccc12)C1CC1 [SB-732932] . Output its %Inh only.
Output: 16

Task: // Input: COc1cccc(CNC(=O)NC2CCN(c3ccnc(Nc4ccc(F)cc4)n3)C2)c1 (stereo not drawn) [GSK1379723] . Output its %Inh only.
Output: 0

Task: // Input: Cn1cncc1-c1cc2c(Nc3ccc(OCc4ccccc4)cc3)ncnc2cn1 [GW281179] . Output its %Inh only.
Output: 5

Task: // Input: O=C(Nc1n[nH]c2nc(-c3cccs3)c(Br)cc12)C1CC1 [SB-735297] . Output its %Inh only.
Output: 0

Task: // Input: O=C(Nc1n[nH]c2nc(-c3cccs3)c(Br)cc12)C1CCCC1 [SB-743341] . Output its %Inh only.
Output: 14

Task: // Input: CS(=O)(=O)Cc1ccc(Nc2nccc(-c3c(-c4cccc(NC(=O)C5CCCCC5)c4)nn4ncccc34)n2)cc1 [GSK350559] . Output its %Inh only.
Output: 19

Task: // Input: COc1cccc(NC(=O)Nc2ccc(C)c(-c3ccc(C(=O)Nc4ccncc4)cc3)c2)c1 [GSK1398474] . Output its %Inh only.
Output: 0

Task: // Input: O=c1cc(N2CCOCC2)nc2n(Cc3ccccc3F)ccn12 [GSK2297428] . Output its %Inh only.
Output: 0

Task: // Input: COc1ccc(Nc2nccc(N3CCC(NC(=O)C(C)c4ccc(Cl)cc4)CC3)n2)cc1 (stereo not drawn) [GSK1379812] . Output its %Inh only.
Output: 0

Task: // Input: COc1cccc(C2=C(Nc3cc(Cl)c(O)c(Cl)c3)C(=O)NC2=O)c1 [SB-390767] . Output its %Inh only.
Output: 0

Task: // Input: Cc1ccccc1Cn1ccn2c(=O)cc(N3CCOCC3)nc12 [GSK2269905] . Output its %Inh only.
Output: 0

Task: // Input: Nc1cccc(-c2ccc3c(N)n[nH]c3c2)n1 [GSK2192730] . Output its %Inh only.
Output: 22

Task: // Input: CSc1ccc(-c2nc3n(c2-c2ccncc2)CCC3)cc1 [SKF-105561] . Output its %Inh only.
Output: 25
